OD492 nm: recorded values
subject.of.test: T1, HCV Core1-169 recombinant antigen (hepatitis C virus (HCV-1), UniProt P26664 1-169)
T1 sequence: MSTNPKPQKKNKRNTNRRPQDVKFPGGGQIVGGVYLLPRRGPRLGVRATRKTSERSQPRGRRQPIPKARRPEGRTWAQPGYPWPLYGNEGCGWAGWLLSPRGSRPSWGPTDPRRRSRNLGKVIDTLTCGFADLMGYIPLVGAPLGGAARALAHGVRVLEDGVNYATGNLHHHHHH
assay: sandwich EIA, 25 ng/ml core1-169; capture mAb 208A-207-271

binder	OD492 nm (OD492)
HCV 208A-557 monoclonal antibody (antibody, V domains shown) VH: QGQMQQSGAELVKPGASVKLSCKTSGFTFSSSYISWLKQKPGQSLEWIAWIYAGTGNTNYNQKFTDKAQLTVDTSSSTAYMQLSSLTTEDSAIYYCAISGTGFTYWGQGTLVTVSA VL: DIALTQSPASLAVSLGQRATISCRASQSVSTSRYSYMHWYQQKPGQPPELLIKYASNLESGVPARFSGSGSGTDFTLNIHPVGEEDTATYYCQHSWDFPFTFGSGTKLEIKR	0.18
HCV 208B-1096 monoclonal antibody (antibody, V domains shown) VH: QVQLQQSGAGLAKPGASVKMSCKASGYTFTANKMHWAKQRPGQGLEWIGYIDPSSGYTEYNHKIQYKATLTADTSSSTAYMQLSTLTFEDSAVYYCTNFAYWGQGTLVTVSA VL: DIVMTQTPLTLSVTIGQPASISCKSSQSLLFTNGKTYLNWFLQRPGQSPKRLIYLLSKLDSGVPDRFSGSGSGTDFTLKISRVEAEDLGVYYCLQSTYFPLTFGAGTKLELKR	0.18
